All figures here come from patent US20170253601A1.

testedOn: SMYD2 (Homo sapiens, UniProt Q9NRG4)
Construct: Full length SMYD2 (NP 064582.2) was cloned; His6 (N, cleaved yes); FLAG (N); made in house; host or cells: Sf9 insect cells
Sequence (Q9NRG4 whole entry): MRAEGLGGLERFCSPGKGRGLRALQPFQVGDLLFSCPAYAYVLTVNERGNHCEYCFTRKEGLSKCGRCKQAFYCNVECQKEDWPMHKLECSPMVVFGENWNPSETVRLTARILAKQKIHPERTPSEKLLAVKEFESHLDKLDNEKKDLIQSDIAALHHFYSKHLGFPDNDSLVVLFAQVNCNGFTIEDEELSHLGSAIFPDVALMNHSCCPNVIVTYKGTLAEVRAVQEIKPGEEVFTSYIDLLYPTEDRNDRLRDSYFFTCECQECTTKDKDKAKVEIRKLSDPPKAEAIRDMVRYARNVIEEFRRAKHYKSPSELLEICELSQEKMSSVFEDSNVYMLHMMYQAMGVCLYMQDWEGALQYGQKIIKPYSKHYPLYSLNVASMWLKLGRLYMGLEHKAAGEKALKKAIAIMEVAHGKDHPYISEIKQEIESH
protocolSummary: SMYD2 Biochemical Assay (3H-SAM, biotinylated peptide substrate, Flashplate)
measurementContext: IC50 values are an average of n = 1 to n = 50; read-out: SMYD2 Biochem IC50 (μM)*
quantity: IC50 (µM)

| molecule | testedOn | readoutUnit | IC50 |
| --- | --- | --- | --- |
| CC(C)c1cc(C(=O)N[C@@H]2CN(C(C)C)C[C@@H]2C)no1 (racemic) | SMYD2 (Homo sapiens, UniProt Q9NRG4) | µM | 7.85 |

(a) CC(C)N1C[C@H](C)[C@H](NC(=O)c2cc(CC(F)F)on2)C1 (racemic)
(b) C[C@H]1CN(C(CO)c2ccccc2)C[C@H]1NC(=O)c1cc(C2CC2)on1 (relative stereo)
(c) C[C@H]1CN(Cc2ncc[nH]2)C[C@H]1NC(=O)c1cc(C2CC2)on1 (racemic)
(d) Cc1ccc2[nH]cc(CN3C[C@H](C)[C@H](NC(=O)c4cc(C5CC5)on4)C3)c2c1 (racemic)
(e) C[C@H]1CN(CC2CC2)C[C@H]1NC(=O)c1cc(C2CC2)on1 (racemic)
# input Kindly order the items shown according to IC50, from the highest value down. Your reply should list the labels following the order given in the request.
# output c, d, b, a, e

###

testedOn: SMYD2 (Homo sapiens, UniProt Q9NRG4)
Construct: Full length SMYD2 (NP 064582.2) was cloned; His6 (N, cleaved yes); FLAG (N); made in house; host or cells: Sf9 insect cells
protocolSummary: SMYD2 Biochemical Assay (3H-SAM, biotinylated peptide substrate, Flashplate)
measurementContext: IC50 values are an average of n = 1 to n = 50; read-out: SMYD2 Biochem IC50 (μM)*
quantity: IC50 (µM)

| compound | quantity | reportedResult |
| --- | --- | --- |
| CCC[C@H]1CN(C)C[C@@H]1NC(=O)c1cc(C2CC2)on1 (racemic) | IC50 | 44.9 |

(I) C[C@H]1CN(CC2CCOC2)C[C@H]1NC(=O)c1cc(C2CC2)on1 (mixture of isomers)
(II) Cc1nc[nH]c1CN1C[C@H](C)[C@H](NC(=O)c2cc(C3CC3)on2)C1 (racemic)
# input Looking only at measured IC50, which entry is lower, I or II ? Refer to your chosen item by its label in the answer.
# output I

(P) C[C@@H]1CN(Cc2c[nH]c3cc(Cl)ccc23)C[C@H]1NC(=O)c1cc(C2CC2)on1 (racemic)
(Q) C[C@H]1CN(Cc2ccc3c(c2)OCCO3)C[C@H]1NC(=O)c1cc(C2CC2)on1 (racemic)
# input Looking only at measured IC50, which entry is lower, P or Q ? Refer to your chosen item by its label in the answer.
# output Q

###

testedOn: SMYD2 (Homo sapiens)
Construct: Full length SMYD2 (NP 064582.2) was cloned; His6 (N, cleaved yes); FLAG (N); made in house; host or cells: Sf9 insect cells
protocolSummary: SMYD2 Biochemical Assay (3H-SAM, biotinylated peptide substrate, Flashplate)
measurementContext: Table 2; average of n = 1 to n = 50; read-out: SMYD2 Biochem IC50
pIC50: −log10 of the molar value.
quantity: pIC50

# input Return reported pIC50. Input compound: C[C@@H]1CN(C(=O)CN)C[C@@H]1NC(=O)c1cc(C2CC2)on1 (racemic)
# output < 4.30

# input Return reported pIC50. Input compound: C[C@@H]1CN(C2CCOCC2)C[C@H]1NC(=O)c1cc(C2CC2)on1 (racemic)
# output < 4.30

# input Return reported pIC50. Input compound: CC(C)N1C[C@H](C)[C@H](NC(=O)c2cc(C3CC3)on2)C1 (racemic)
# output 5.62

# input Return reported pIC50. Input compound: C[C@@H]1CN(S(=O)(=O)C2CCNCC2)C[C@@H]1NC(=O)c1cc(C2CC2)on1 (racemic)
# output < 4.30

# input Return reported pIC50. Input compound: C[C@@H]1CN(C(=O)CO)C[C@@H]1NC(=O)c1cc(C2CC2)on1 (racemic)
# output < 4.30

# input Return reported pIC50. Input compound: C[C@H]1C[C@@H](NC(=O)c2cc(C3CC3)on2)CN1C (racemic)
# output < 4.30

# input Return reported pIC50. Input compound: C[C@@H]1CN(C(=O)CC2CCNCC2)C[C@@H]1NC(=O)c1cc(C2CC2)on1 (racemic)
# output < 4.30

# input Return reported pIC50. Input compound: C[C@@H]1CN(CCS(C)(=O)=O)C[C@H]1NC(=O)c1cc(C2CC2)on1 (racemic)
# output < 4.30

# input Return reported pIC50. Input compound: CC(=O)N1C[C@@H](C)[C@H](NC(=O)c2cc(C3CC3)on2)C1 (racemic)
# output < 4.30

# input Return reported pIC50. Input compound: C[C@@H]1CN(C2CCCCC2)C[C@@H]1NC(=O)c1cc(C2CC2)on1 (racemic)
# output 4.74

# input Return reported pIC50. Input compound: CCN1C[C@H](C)[C@H](NC(=O)c2cc(C3CC3)on2)C1 (racemic)
# output 5.52

# input Return reported pIC50. Input compound: C[C@@H]1CN(C2CCCCC2)C[C@H]1NC(=O)c1cc(C2CC2)on1 (racemic)
# output < 4.30

# input Return reported pIC50. Input compound: CC(=O)N1CCC(N2C[C@@H](C)[C@H](NC(=O)c3cc(C4CC4)on3)C2)CC1 (racemic)
# output < 4.30

###

testedOn: SMYD2 (Homo sapiens, UniProt Q9NRG4)
Construct: Full length SMYD2 (NP 064582.2) was cloned; His6 (N, cleaved yes); FLAG (N); made in house; host or cells: Sf9 insect cells
protocolSummary: SMYD2 Biochemical Assay (3H-SAM, biotinylated peptide substrate, Flashplate)
measurementContext: IC50 values are an average of n = 1 to n = 50; read-out: SMYD2 Biochem IC50 (μM)*
quantity: IC50

Worked examples, 2 compounds total:
| compound | IC50 |
| --- | --- |
| COc1cc(CN2C[C@@H](C)[C@H](NC(=O)c3cc(C4CC4)on3)C2)cc(OC)c1 (racemic) | > 50 µM |
| CO[C@H]1CN(C)C[C@H]1NC(=O)c1cc(C2CC2)on1 (racemic) | 49.8 µM |

# input Return reported IC50. Input compound: CNC(=O)CN1C[C@@H](C)[C@H](NC(=O)c2cc(C3CC3)on2)C1 (racemic)
# output > 50 µM

# input Return reported IC50. Input compound: CC(C)c1cc(C(=O)N[C@H]2C[C@@H](CNC(=O)C3CCCCC3)N(C3CC3)C2)no1 (racemic)
# output > 50 µM

# input Return reported IC50. Input compound: C[C@H]1CN(c2ccncn2)C[C@H]1NC(=O)c1cc(C2CC2)on1 (racemic)
# output > 50 µM

###

testedOn: SMYD2 (Homo sapiens, UniProt Q9NRG4)
Construct: Full length SMYD2 (NP 064582.2) was cloned; His6 (N, cleaved yes); FLAG (N); made in house; host or cells: Sf9 insect cells
protocolSummary: SMYD2 Biochemical Assay (3H-SAM, biotinylated peptide substrate, Flashplate)
measurementContext: IC50 values are an average of n = 1 to n = 50; read-out: SMYD2 Biochem IC50 (μM)*
quantity: IC50 (µM)

Worked examples, 3 compounds total:
| compound | readoutUnit | reportedResult |
| --- | --- | --- |
| C[C@H]1CN(CCF)C[C@H]1NC(=O)c1cc(C2CC2)on1 (racemic) | µM | 5.72 |
| C[C@H]1CN(CCO)C[C@H]1NC(=O)c1cc(C2CC2)on1 (racemic) | µM | 5.85 |
| COc1ccc(CN2C[C@H](C)[C@H](NC(=O)c3cc(C4CC4)on3)C2)cc1 (racemic) | µM | 3.63 |

(A) O=C(N[C@@H]1CN(C2CC2)C[C@H]1CO)c1cc(C2CC2)on1
(B) C[C@H]1CN(CC2CCNCC2)C[C@H]1NC(=O)c1cc(C2CC2)on1 (racemic)
(C) Cc1nn(C)cc1CN1C[C@H](C)[C@H](NC(=O)c2cc(C3CC3)on2)C1 (racemic)
(D) C[C@H]1CN(CC(C)(C)C)C[C@H]1NC(=O)c1cc(C2CC2)on1 (racemic)
# input Kindly order the items shown according to IC50, from the highest value down. Your reply should list the labels following the order given in the request.
# output A, D, B, C
(A: 43.2 µM, D: 11.3 µM, B: 4.78 µM, C: 1.67 µM)

###

testedOn: SMYD2 (Homo sapiens)
Construct: Full length SMYD2 (NP 064582.2) was cloned; His6 (N, cleaved yes); FLAG (N); made in house; host or cells: Sf9 insect cells
protocolSummary: SMYD2 Biochemical Assay (3H-SAM, biotinylated peptide substrate, Flashplate)
measurementContext: IC50 values are an average of n = 1 to n = 50; read-out: SMYD2 Biochem IC50 (μM)*
quantity: IC50 (µM)

(a) C[C@@H]1CN(C2CC2)C[C@@H]1NC(=O)c1cc(C2CC2)on1
(b) C[C@H]1CN(Cc2cc([N+](=O)[O-])ccc2F)C[C@H]1NC(=O)c1cc(C2CC2)on1 (racemic)
# input Looking only at measured IC50, which entry is lower, a or b ? Refer to your chosen item by its label in the answer.
# output a
(a: 1.15 µM, b: 26.7 µM)
